Tested on: erythrocytes
assay.procedure: In vitro toxicity study, haemolysis (Tables 11 and 12)
Type: cell-based, horse
experimental.conditions: 25 μM (Table 12)
Let's look at some compounds and their measured Haemolysis of erythrocytes, Mean ± S.E.M..
Just the number in %, nothing appended.

Worked examples, 2 compounds total:
CC1C=CC=CC=CC=CC=CC=CC=CC(OC2OC(C)C(O)C(N)C2O)CC2OC(O)(CC(O)C(O)CCC(O)CC(O)CC(O)CC(=O)OC(C)C(C)C1O)CC(O)C2C(N)=O (stereo not drawn) [Compound 7] : 1.5
CC1C=CC=CC=CC=CC=CC=CC=CC(OC2OC(C)C(O)C(N)C2O)CC2OC(O)(CC(O)C(O)CCC(O)CC(O)CC(O)CC(=O)OC(C)C(C)C1O)CC(O)C2C(=O)NCCO (stereo not drawn) [Compound 5] : 1.6

Continue with the compound presented below.
[ask] Write down Haemolysis of erythrocytes, Mean ± S.E.M. measured for item CC1C=CC=CC=CC=CC=CC=CC=CC(OC2OC(C)C(O)C(NCC3(O)OCC(O)C(O)C3O)C2O)CC2OC(O)(CC(O)C(O)CCC(O)CC(O)CC(O)CC(=O)OC(C)C(C)C1O)CC(O)C2C(=O)O (single isomer, unassigned) [Compound 17]
[reply] 2.4
